Tested on: HCC-2998 colon
Experiment: NCI-60 one-dose screen, 48 h (100 = growth as untreated, 0 = no growth, -100 = all killed)
Conditions: 10 µM unless noted
Procedure: Growth inhibition of the HCC-2998 human tumor cell line is measured as a screen for anti-cancer activity. Cells are grown in 96 well plates and exposed to the test compound for 48 hours. Compounds are tested at a single concentration, which is 10^-5 M for most compounds. The reported endpoint is percent growth (GI% or GIPRCNT), where numbers from 0 - 100% represent growth inhibition, and numbers from -100% - 0 represent cell death. For example, a value of 40 represents 60% growth inhibition. […]
The panel holds about 83,000 compounds, 20% with a hit somewhere; the sample as a whole holds those more often.
Listed next: entries and their corresponding growth.
The reply should be a number in %, with the unit left off.

Below: 5 molecules and their reported growth.
[[record]]
molecule = "Cn1cc(C(=O)c2nc(-c3c[nH]c4ccc(Br)cc34)no2)c2cc(F)ccc21"
study_target = "HCC-2998 colon"
result_value = 97.5

[[record]]
molecule = "CC(C)(C)c1cc(/C=N\\NC(=O)/C=C/C=C/c2ccc3c(c2)OCO3)c(O)c(C(C)(C)C)c1"
study_target = "HCC-2998 colon"
result_value = 89.2

[[record]]
molecule = "COc1ccc(-c2cc(-c3ccc(Nc4ccnc5cc(Cl)ccc45)cc3)nc(N3CCOCC3)n2)cc1"
study_target = "HCC-2998 colon"
result_value = 98.8

[[record]]
molecule = "Fc1ccc(CNc2cccc3[nH]c(C(F)(F)F)nc23)cc1"
study_target = "HCC-2998 colon"
result_value = 119

[[record]]
molecule = "N#Cc1c(-c2ccc(Cl)cc2)nc(NN=Cc2ccco2)nc1N1CCOCC1"
study_target = "HCC-2998 colon"
result_value = 74.8


Can you look up the measured growth of N#Cc1c(-c2ccc(Cl)cc2)nc(N/N=C/c2cccc(Br)c2)nc1N1CCOCC1 for me?
96.1

Proceed to COc1ccc(C2C(C#N)=C(N)Oc3n[nH]c(-c4cccs4)c32)cc1I (stereo not given)
95.9

Proceed to Cn1c(O)c(N=NC(=O)c2cc(-c3ccccc3)on2)c2ccccc21
102

Proceed to NC(CSC(c1ccccc1)(c1ccccc1)c1ccc(Cl)cc1)C(=O)O (stereo not given)
-36.3

Proceed to COc1ccc(-c2nc3ccc(-c4nc5ccc(N6CCN(C)CC6)cc5[nH]4)cc3[nH]2)cc1OC
77.7

====

system: UACC-62 melanoma; assay: NCI-60 one-dose screen, 48 h (100 = growth as untreated, 0 = no growth, -100 = all killed); details: 10 µM unless noted
Compounds without any hit were thinned out: in the full panel of roughly 83,000, 20% have a hit.
Cut-off 70% on growth: below means 1, at or above means -1.

[[record]]
compound = "C=CC(=O)Nc1cccc(Nc2nc(SC)nc(-c3cccc([N+](=O)[O-])c3)c2C#N)c1"
study_target = "UACC-62 melanoma"
group = 1

[[record]]
compound = "Clc1ccc2c(NCCCCNc3nc(N4CCCCC4)nc4ccccc34)ccnc2c1"
study_target = "UACC-62 melanoma"
group = 1

[[record]]
compound = "COc1cc2c(cc1-c1c(C)noc1C)ncc1nc(C3CCC(F)(F)CC3)n([C@H](C)COC(F)F)c12"
study_target = "UACC-62 melanoma"
group = 1

[[record]]
compound = "N#CN1CC[C@H](C(=O)Nc2cc3cc(C(N)=O)ccc3cn2)C1"
study_target = "UACC-62 melanoma"
group = 1

[[record]]
compound = "CCOC(=O)C(C)(C#N)C1C=CCCC1 (stereo not given)"
study_target = "UACC-62 melanoma"
group = -1

[[record]]
compound = "O=c1ccccc(-c2ccc(Br)cc2)c1O"
study_target = "UACC-62 melanoma"
group = 1

[[record]]
compound = "N#CCCN=Nc1c(O)[nH]c2ccc(F)cc12"
study_target = "UACC-62 melanoma"
group = -1

[[record]]
compound = "COc1cc2c(cc1-c1c(C)noc1C)ncc1nc(-c3ccccn3)n([C@H](C)COC(F)F)c12"
study_target = "UACC-62 melanoma"
group = 1


State whether 70% exceeds growth recorded for OC(COc1cccc2ccccc12)CN1CCN(c2ccccc2Cl)CC1 (stereo not given) .
-1

Proceed to Cc1ccc(NS(=O)(=O)c2ccc(-c3cnc(C4CC4)o3)cc2)cc1C
1
